# target: AEA-DA lipid probe targets in Neuro2a cells (Mus musculus)
# Sequence (Q5U680 whole entry): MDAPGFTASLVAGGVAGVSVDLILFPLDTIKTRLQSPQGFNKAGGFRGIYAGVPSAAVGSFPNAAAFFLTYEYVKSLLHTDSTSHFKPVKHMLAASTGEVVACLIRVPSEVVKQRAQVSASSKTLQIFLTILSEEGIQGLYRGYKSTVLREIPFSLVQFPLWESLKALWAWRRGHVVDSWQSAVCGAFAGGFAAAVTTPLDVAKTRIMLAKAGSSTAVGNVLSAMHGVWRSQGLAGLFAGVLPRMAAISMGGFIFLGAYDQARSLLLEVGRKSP
# experimentalParameters: competitor 25 μM

[
  {
    "compound": "CN1CCN(C(=O)c2[nH]c3ccc([N+](=O)[O-])cc3c2-c2ccccc2)CC1 [MJN228]",
    "SILAC ratio, Slc25a26": 0.7
  },
  {
    "compound": "C=CCN(C)CCCCCCOc1ccc(C(=O)c2ccc(Br)cc2)c(F)c1 [Ro 48-8071, reference compound]",
    "SILAC ratio, Slc25a26": 0.7
  },
  {
    "compound": "CN1CCN(C(=O)c2c(-c3ccccc3)c3cc([N+](=O)[O-])ccc3n2C)CC1 [KML110]",
    "SILAC ratio, Slc25a26": 0.7
  },
  {
    "compound": "O=C(/C=C/c1cccnc1)NCCCCC1CCN(C(=O)c2ccccc2)CC1 [FK-866, reference compound]",
    "SILAC ratio, Slc25a26": 0.8
  }
]
